IC50 tested on RET kinase (Homo sapiens, UniProt P07949): recorded values
Sequence (P07949 29-1114): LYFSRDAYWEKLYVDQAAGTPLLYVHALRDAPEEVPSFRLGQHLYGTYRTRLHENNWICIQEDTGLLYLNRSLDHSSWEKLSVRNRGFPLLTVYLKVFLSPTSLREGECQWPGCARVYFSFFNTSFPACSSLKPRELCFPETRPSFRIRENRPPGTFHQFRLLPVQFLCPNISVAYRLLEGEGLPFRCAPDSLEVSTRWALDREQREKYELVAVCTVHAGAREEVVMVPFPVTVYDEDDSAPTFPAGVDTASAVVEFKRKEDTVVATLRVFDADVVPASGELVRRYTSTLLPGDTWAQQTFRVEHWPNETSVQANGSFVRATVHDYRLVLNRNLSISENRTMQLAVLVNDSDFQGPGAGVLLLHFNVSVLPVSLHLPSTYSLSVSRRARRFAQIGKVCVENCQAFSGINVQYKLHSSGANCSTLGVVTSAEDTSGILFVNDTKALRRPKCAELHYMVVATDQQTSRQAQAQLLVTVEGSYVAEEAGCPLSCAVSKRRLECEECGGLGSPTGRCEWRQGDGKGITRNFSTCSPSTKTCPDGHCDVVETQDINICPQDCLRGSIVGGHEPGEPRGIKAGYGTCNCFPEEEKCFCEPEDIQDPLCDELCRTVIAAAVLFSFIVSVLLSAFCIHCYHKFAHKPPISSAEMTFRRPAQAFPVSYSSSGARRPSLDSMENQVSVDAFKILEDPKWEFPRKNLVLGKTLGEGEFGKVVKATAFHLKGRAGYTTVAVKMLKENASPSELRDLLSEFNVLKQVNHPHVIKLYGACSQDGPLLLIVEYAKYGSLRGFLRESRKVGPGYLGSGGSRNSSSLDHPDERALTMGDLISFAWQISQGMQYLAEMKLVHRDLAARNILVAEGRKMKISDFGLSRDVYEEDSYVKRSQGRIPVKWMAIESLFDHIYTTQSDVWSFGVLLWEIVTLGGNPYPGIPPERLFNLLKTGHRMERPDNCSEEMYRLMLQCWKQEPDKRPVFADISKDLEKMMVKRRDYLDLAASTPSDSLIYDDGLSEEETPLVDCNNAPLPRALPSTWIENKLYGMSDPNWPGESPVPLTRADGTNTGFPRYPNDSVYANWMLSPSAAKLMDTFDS
Answers are plain numbers, in nM.

Example results:
molecule	studyTarget	measurementUnit	IC50
COc1ccc(CN2C3CC2CN(c2ccc(-c4cc(C5=CCNCC5)cn5ncc(C#N)c45)cn2)C3)cn1 [Trifluoroacetate of compound 32]	RET kinase (Homo sapiens, UniProt P07949)	nM	1.1
COc1ccc(CN2C3CC2CN(c2ccc(-c4cc(C5=CCC6(CC5)COC6)cn5ncc(C#N)c45)cn2)C3)cn1 [Trifluoroacetate of compound 47]	RET kinase (Homo sapiens, UniProt P07949)	nM	0.63
N#Cc1cnn2cc(C3=CCOCC3)cc(-c3ccc(N4CC5CC(C4)N5Cc4ccc(C(F)(F)F)nc4)nc3)c12 [Trifluoroacetate of compound 56]	RET kinase (Homo sapiens, UniProt P07949)	nM	0.96
N#Cc1cnn2cc(C3=CCOCC3)cc(-c3ccc(N4CC5CC(C4)N5Cc4cnc5[nH]ccc5c4)nc3)c12	RET kinase (Homo sapiens, UniProt P07949)	nM	1.57

For each of the molecules below, note its IC50.
1. CN1CC=C(c2cc(-c3ccc(N4CCN(Cc5c(F)cccc5F)CC4)nc3)c3c(C#N)cnn3c2)C1 [Trifluoroacetate of compound 24]
2. COc1ccc(CN2C3CC2CN(c2ccc(-c4cc(N5CCNCC5)cn5ncc(C#N)c45)cn2)C3)cn1 [Trifluoroacetate of compound 10]
3. COc1ccc(CN2C3CC2CN(c2ccc(-c4cc(C5=CCN(C)CC5)cn5ncc(C#N)c45)cn2)C3)cn1 [Trifluoroacetate of compound 46]

*A*
[1.1, 0.69, 1.16]

====

- studyTarget: RET (V804M) kinase (Homo sapiens, UniProt P07949, V804M)
- Sequence (P07949 29-1114 V804M): as the sequence (P07949 29-1114) above, with V776M counted along it
- measurementProtocol: In-vitro enzyme activity test, RET (V804M) kinase
- assayContext: ATP 30 μM; 10 concentrations 3 μM to 0.152 nM
Rule: measured IC50 below 6 nM gets 1; anything equal to or greater than 6 nM gets -1.

Observe how each entry below is paired with its result.
> print(dat)
                                   compound  discretelabel
1  N#Cc1cnn2cc(N3CCCC3)cc(-c3ccc(N4CCN(Cc5c(F)cccc5F)CC4)nc3)c12 [Triftuoroacetate of compound 57]             -1
2  COc1ccc(CN2CCN(c3ccc(-c4cc(N5CCCC5)cn5ncc(C#N)c45)cn3)CC2)cn1 [Trifluoroacetate of compound 63]              1
3  COc1ccc(CN2C3CC2CN(c2ccc(-c4cc(N5CCNCC5)cn5ncc(C#N)c45)cn2)C3)cn1 [Trifluoroacetate of compound 10]              1
4  COc1ccc(CN2C3CC2CN(c2ccc(-c4cc(N5CCC(F)(F)C5)cn5ncc(C#N)c45)cn2)C3)cn1 [Trifluoroacetate of compound 69]              1

Let's switch to this compound now.
*Q* Quick check: IC50 of C[C@@H](C(=O)N1CCN(c2ccc(-c3cc(C4=CCOC4)cn4ncc(C#N)c34)cn2)CC1)c1ccccc1 [Trifluoroacetate of compound 28] under 6 nM?
*A* -1

====

pIC50 tested on RET kinase (Homo sapiens): recorded values
Give bare numbers, as −log10 of the molar value.

For each of the compounds below, note its pIC50.
1. CCN1CC=C(c2cc(-c3ccc(N4CCN(Cc5c(F)cccc5F)CC4)nc3)c3c(C#N)cnn3c2)CC1 [Trifluoroacetate of compound 27]
2. C[C@@H](C(=O)N1CCN(c2ccc(-c3cc(C4=CCOC4)cn4ncc(C#N)c34)cn2)CC1)c1ccccc1 [Trifluoroacetate of compound 28]
3. COc1ccc(CN2C3CC2CN(c2ccc(-c4cc(C5=CCC(O)CC5)cn5ncc(C#N)c45)cn2)C3)cn1 (centres unmarked) [Trifluoroacetate of compound 39]

*A*
8.36
8.80
9.17

For each of the compounds below, note its pIC50.
1. N#Cc1cnn2cc(C3=CCOCC3)cc(-c3ccc(N4CC5CC(C4)N5Cc4ccnc5c4OCO5)nc3)c12 [Triftuoroacetate of compound 43]
2. CN1CCC(c2cc(-c3ccc(N4CCN(Cc5c(F)cccc5F)CC4)nc3)c3c(C#N)cnn3c2)C1 (centres unmarked) [Trifluoroacetate of compound 6]
3. N#Cc1cnn2cc(N3CCCC3)cc(-c3ccc(N4CCN(Cc5c(F)cccc5F)CC4)nc3)c12 [Triftuoroacetate of compound 57]

*A*
9.14
7.46
8.70

For each of the compounds below, note its pIC50.
1. COc1ccc(CN2C3CC2CN(c2ccc(-c4cc(C5=CCNC(C)(C)C5)cn5ncc(C#N)c45)cn2)C3)cn1 [Trifluoroacetate of compound 48]
2. COc1ccc(CN2C3CC2CN(c2ccc(-c4cc(N5CCC(N(C)C)C5)cn5ncc(C#N)c45)cn2)C3)cn1 (centres unmarked) [Triftuoroacelate of compound 72]

*A*
8.67
8.18

====

- studyTarget: RET (V804M) kinase (Homo sapiens, UniProt P07949, V804M)
- measurementProtocol: In-vitro enzyme activity test, RET (V804M) kinase
- assayContext: ATP 30 μM; 10 concentrations 3 μM to 0.152 nM
measuredQuantity: pIC50
One number for each entry, as −log10 of the molar value.

Example results:
> print(dat)
                                    compound                               studytarget  measuredvalue
 1  N#Cc1cnn2cc(N3CCOCC3)cc(-c3ccc(N4CC5CC(C4)N5Cc4cnc5[nH]ccc5c4)nc3)c12 [Trifluoroacetate of compound 14]  RET (V804M) kinase (Homo sapiens, UniProt P07949, V804M)           9.32
 2  CO[C@H]1C[C@@H](NC(=O)C2CCN(c3ccc(-c4cc(N5CCCC5)cn5ncc(C#N)c45)cn3)CC2)C1 [Trifluoroacetate of compound 61]  RET (V804M) kinase (Homo sapiens, UniProt P07949, V804M)           8.05
 3  COc1ccc(CN2C3CC2CN(c2cnc(-c4cc(C5CC5)cn5ncc(C#N)c45)cn2)C3)cn1 [Trifluoroacetate of compound 8]  RET (V804M) kinase (Homo sapiens, UniProt P07949, V804M)           8.50
 4  COc1ccc(CN2C3CC2CN(c2ccc(-c4cc(C5=CCNC(C)C5)cn5ncc(C#N)c45)cn2)C3)cn1 (stereo not drawn)  RET (V804M) kinase (Homo sapiens, UniProt P07949, V804M)           7.95
 5  COc1ccc(CN2C3CC2CN(c2ccc(-c4cc(N5CCOCC5)cn5ncc(C#N)c45)cn2)C3)cn1 [Trifluoroacetate of compound 9]  RET (V804M) kinase (Homo sapiens, UniProt P07949, V804M)           8.74
 6  N#Cc1cnn2cc(C3CC3)cc(-c3ccc(N4CCN(Cc5c(F)cccc5F)CC4)nc3)c12  RET (V804M) kinase (Homo sapiens, UniProt P07949, V804M)           7.44
 7  COc1ccc(CN2C3CC2CN(c2cnc(-c4cc(N5CC[C@H](F)C5)cn5ncc(C#N)c45)cn2)C3)cn1 [Trifluoroacetate of compound 66]  RET (V804M) kinase (Homo sapiens, UniProt P07949, V804M)           8.12
 8  N#Cc1cnn2cc(C3=CCOCC3)cc(-c3cnc(N4CC5CC(C4)N5Cc4ccc5[nH]ccc5c4)cn3)c12  RET (V804M) kinase (Homo sapiens, UniProt P07949, V804M)           8.12
 9  N#Cc1cnn2cc(N3CCCC3)cc(-c3ccc(N4CCC(C(=O)NC5CC(F)(F)C5)CC4)nc3)c12 [Trifluoroacetate of compound 58]  RET (V804M) kinase (Homo sapiens, UniProt P07949, V804M)           8.11
10  CN1CC=C(c2cc(-c3ccc(N4CCN(Cc5c(F)cccc5F)CC4)nc3)c3c(C#N)cnn3c2)CC1 [Trifluoroacetate of compound 26]  RET (V804M) kinase (Homo sapiens, UniProt P07949, V804M)           7.66

For each of the compounds below, note its pIC50.
1. COc1ccc(CN2C3CC2CN(c2ccc(-c4cc(N5CC[C@@H](F)C5)cn5ncc(C#N)c45)cn2)C3)cn1 [Trifluoroacetate of compound 68]
2. N#Cc1cnn2cc(C3=CCOCC3)cc(-c3ccc(N4CC5CC(C4)N5Cc4cnc5[nH]ccc5c4)nc3)c12

*A*
8.83
8.26

For each of the compounds below, note its pIC50.
1. COc1cnc(CN2C3CC2CN(c2ccc(-c4cc(C5=CCOCC5)cn5ncc(C#N)c45)cn2)C3)cn1
2. N#Cc1cnn2cc(C3=CCOCC3)cc(-c3ccc(N4CC5CC(C4)N5Cc4ccc5[nH]cnc5c4)nc3)c12
3. COc1ccc(CN2C3CC2CN(c2cnc(-c4cc(N5CCC(F)(F)C5)cn5ncc(C#N)c45)cn2)C3)cn1

*A*
8.42
7.81
8.59
